Streptococcus pneumoniae ATCC6303: recorded MIC for assorted compounds

compound	tested-target	MIC
COc1c(N2CCN(C(=O)CO/N=C3/c4c5c(C)c(O)c6c4C4=NC7(CCN(CC(C)C)CC7)NC4=C(NC(=O)/C(C)=C\C=C\[C@H](C)[C@H](O)[C@@H](C)[C@@H](O)[C@@H](C)[C@H](OC(C)=O)[C@H](C)[C@@H](OC)/C=C/O[C@@]3(C)O5)C6=O)C(C)C2)c(F)cc2c(=O)c(C(=O)O)cn(C3CC3)c12 (some centres unmarked)	Streptococcus pneumoniae ATCC6303	0.06 to 31 ng/mL

Missing value: MIC, Streptococcus pneumoniae ATCC6303, entry `CO[C@H]1/C=C/O[C@@]2(C)Oc3c(C)c(O)c4c(=O)c(c5oc6cc(N7CCN(C(C)C)CC7)cc(O)c6nc-5c4c3/C2=N/O)NC(=O)/C(C)=C\C=C\[C@H](C)[C@H](O)[C@@H](C)[C@@H](O)[C@@H](C)[C@H](OC(C)=O)[C@@H]1C` . Fill in?
0.06 to 31 ng/mL
